assay_comment: basal HepG2 mitochondrial membrane potential changes, profiling panel, cell-based, JC-1 fluorescence, 24 h, 100 nL compound (AID 1167); also: test concentration not given here
experimental_conditions: higher = more signal
Parameter threshold = -0.9. Response is Yes when z-score meets or exceeds it, else No.

- molecule: "COCCOC(=O)N1C(=O)[C@@]2(c3ccccc31)[C@H](c1ccc(OCCO)cc1)N1[C@H](c3ccccc3)[C@H](c3ccccc3)OC(=O)[C@H]1[C@@H]2C(=O)Nc1nc2ccccc2s1"
  class: "No"
- molecule: "C[C@H]1C2=C3C(CC[C@H]4C(OCc5ccc(F)cc5C(F)(F)F)OC[C@](C)([C@@H]34)N(C(=O)OC(C)(C)C)C2)C2COC(=O)OCC21 (stereo partly specified)"
  class: "Yes"
- molecule: "C=CC[C@H](OC(=O)Nc1ccc(OC)cc1)c1ccc(O)c2ccccc12"
  class: "No"
- molecule: "COc1cc2c(cc1OC)CN(C(=O)[C@@H]1[C@H]3C(=O)O[C@H](c4ccccc4)[C@H](c4ccccc4)N3[C@H](c3ccccc3OCCO)[C@@]13C(=O)Nc1ccc(C#CC4(O)CCCCCC4)cc13)CC2"
  class: "Yes"
- molecule: "C[C@]1(C(=O)NCCN2CCOCC2)c2ccccc2C(=O)N(Cc2ccc(OC(F)(F)F)cc2)[C@H]1c1ccc(CO)cc1"
  class: "Yes"
- molecule: "CN1C(=O)[C@@]2(CCS(=O)(=O)c3ccccc3)N=C(c3ccc(OCCCO)cc3)O[C@H]2c2ccccc21"
  class: "Yes"
- molecule: "CCOC(=O)C[C@H]1[C@H](OC(=O)c2ccc(C(=O)c3ccccc3)cc2)[C@@H](NC(=O)c2ccc3ccccc3c2)c2cc(OCCCO)ccc2N1C(=O)c1ccccc1"
  class: "Yes"
- molecule: "CCOC(=O)C[C@H]1[C@H](OC(=O)Cc2ccc3c(c2)OCO3)[C@@H](NC(=O)Cc2ccc(OC)cc2)c2cc(OCCCO)ccc2N1C(=O)c1ccccc1"
  class: "Yes"
- molecule: "COC(=O)[C@@]1(Cc2ccc(OC)cc2)[C@H]2c3cc(C(=O)N(C)C)n(Cc4nc5ccccc5[nH]4)c3C[C@H]2CN1C(=O)c1ccccc1"
  class: "Yes"
- molecule: "CC(C)C(CO)N1C(=O)[C@]2(C)C3C(=O)OCCC/C=C\\[C@H]3OC23C=CCN(c2ccc(Cl)cc2)C(=O)[C@@H]13 (stereo partly specified)"
  class: "Yes"
- molecule: "COc1ccccc1CN1C(=O)c2ccccc2[C@](Cc2ccccc2I)(C(=O)NC(C)C)[C@@H]1c1ccc(CO)cc1"
  class: "Yes"
- molecule: "C[N+](C)(C)CCCC[C@@H]1NC(=O)[C@@H]2C[C@H](C(=O)O)[C@H](c3ccc(O)cc3)N2C1=O"
  class: "Yes"
- molecule: "COCCCNC(=O)[C@@]1(Sc2ccc(C)cc2)CC(=O)N(Cc2cc(C(F)(F)F)cc(C(F)(F)F)c2)[C@@H]1c1ccc(CO)cc1"
  class: "Yes"
- molecule: "COCCCNC(=O)[C@@]1(Sc2ccc(C)cc2)CC(=O)N(C2Cc3ccccc3C2)[C@@H]1c1ccc(CO)cc1I"
  class: "Yes"
- molecule: "Cc1ccc(C(C)CC(O)C2C=CC3C(=O)N(c4ccccc4)C(=O)C3N2Nc2ccc(C(C)C)cc2)o1 (stereo unspecified)"
  class: "No"
- molecule: "CC(=O)N1Cc2ccccc2C[C@]2(N=C(c3ccc(OCCCO)cc3)O[C@@H]2c2ccccc2)C1=O"
  class: "Yes"
- molecule: "NCCCCCCNC(=O)[C@H]1C[C@H]2C(=O)N[C@@H](Cc3ccccc3)C(=O)N2[C@H]1c1ccc(O)cc1"
  class: "Yes"
- molecule: "[N-]=[N+]=Nc1ccccc1C[C@@]1(C(=O)O)N=C(c2ccc(OCCCO)cc2)O[C@@H]1c1ccccc1"
  class: "No"
- molecule: "COC(=O)C1(Cc2ccccc2)C=C2C(=C(C(C)C)C(=O)C2C)CN1 (stereo unspecified)"
  class: "No"
- molecule: "C=CCOC(=O)[C@@H]1[C@H]2C(=O)O[C@H](c3ccccc3)[C@H](c3ccccc3)N2[C@H](c2ccc(OCCOC(=O)[C@H]3C[C@H]4C(=O)N[C@@H](CC(C)C)C(=O)N4[C@H]3c3ccc(O)cc3)cc2)[C@@]12C(=O)Nc1ccc(I)cc12"
  class: "Yes"
- molecule: "CCCCN1CC=CC23O[C@@H]4C=CCOC(=O)[C@@H]4[C@H]2C(=O)N(C(C)CO)[C@@H]3C1=O (stereo partly specified)"
  class: "No"
- molecule: "COC(=O)C(CC#Cc1ccc2c(c1)[C@]1(C(=O)N2)[C@H](C(=O)O)[C@H]2C(=O)O[C@H](c3ccccc3)[C@H](c3ccccc3)N2[C@@H]1c1ccccc1OCCO)C(=O)OC"
  class: "No"
- molecule: "CCCCN1CC=CC23O[C@@H]4C=CCOC(=O)[C@@H]4[C@H]2C(=O)N(CCCO)[C@@H]3C1=O (stereo partly specified)"
  class: "No"
- molecule: "CCCC[C@@H]1C[C@H]1[C@@H](NC(=O)c1cccnc1)c1ccc(-c2ccccc2)cc1"
  class: "Yes"
